TEST_SYSTEM: human neurotrypsin (Homo sapiens, UniProt P56730)
Sequence (P56730 21-875): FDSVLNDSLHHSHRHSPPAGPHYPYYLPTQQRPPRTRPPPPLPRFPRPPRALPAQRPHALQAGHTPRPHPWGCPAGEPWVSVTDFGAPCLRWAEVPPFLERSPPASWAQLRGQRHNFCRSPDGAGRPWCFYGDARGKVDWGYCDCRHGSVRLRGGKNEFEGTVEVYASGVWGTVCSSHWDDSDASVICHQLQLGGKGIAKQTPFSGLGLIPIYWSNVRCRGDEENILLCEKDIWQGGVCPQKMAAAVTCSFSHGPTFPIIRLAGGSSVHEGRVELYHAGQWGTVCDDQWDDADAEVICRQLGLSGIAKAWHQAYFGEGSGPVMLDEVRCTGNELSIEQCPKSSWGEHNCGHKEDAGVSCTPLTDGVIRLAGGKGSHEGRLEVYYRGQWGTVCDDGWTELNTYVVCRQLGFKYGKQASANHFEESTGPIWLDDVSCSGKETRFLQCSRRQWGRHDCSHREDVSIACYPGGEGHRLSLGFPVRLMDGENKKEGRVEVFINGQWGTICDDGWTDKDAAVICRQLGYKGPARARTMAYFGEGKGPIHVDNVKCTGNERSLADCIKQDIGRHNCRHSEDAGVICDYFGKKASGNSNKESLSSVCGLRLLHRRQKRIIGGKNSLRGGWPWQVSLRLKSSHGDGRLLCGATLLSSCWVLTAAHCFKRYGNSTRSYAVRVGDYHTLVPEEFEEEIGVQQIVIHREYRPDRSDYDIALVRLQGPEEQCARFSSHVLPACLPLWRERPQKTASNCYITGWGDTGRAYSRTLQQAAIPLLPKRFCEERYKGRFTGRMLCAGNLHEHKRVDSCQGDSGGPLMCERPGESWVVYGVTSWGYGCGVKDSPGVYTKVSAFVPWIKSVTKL
TEST_SUMMARY: Determination of IC50 for human neurotrypsin
Format: biochemical
CONDITION_SUMMARY: human neurotrypsin; method of WO 2006/1103261; read-out: Neurotrypsin IC50
pIC50: −log10 of the molar value.
Given measured pIC50, output y if it is greater than or equal to 5 and n if not.

Here's what some known entries look like.
O=C(Nc1ccccn1)c1ccc(C(=O)O)c(NC(=O)c2sc3ccccc3c2Cl)c1; n
O=C(Nc1ccc(Cl)cc1)c1ccc(NC(=O)c2sc3ccccc3c2Cl)c(C(=O)O)c1; y

INPUT: I'd appreciate it if you could say whether O=C(O)c1ccc(NC(=O)N2CCC(c3ccccc3)CC2)cc1NC(=O)c1sc2ccccc2c1Cl has pIC50 at least equal to 5.
OUTPUT: y

INPUT: I'd appreciate it if you could say whether O=C(Nc1ccc(Oc2ccccc2)c(Cl)c1)c1ccc(C(=O)O)c(NC(=O)c2sc3ccccc3c2Cl)c1 has pIC50 at least equal to 5.
OUTPUT: y

INPUT: I'd appreciate it if you could say whether O=C(Nc1nccs1)c1ccc(C(=O)O)c(NC(=O)c2sc3ccccc3c2Cl)c1 has pIC50 at least equal to 5.
OUTPUT: n

INPUT: I'd appreciate it if you could say whether O=C(O)c1ccc(C(=O)N2CCC(Cc3ccccc3)CC2)cc1NC(=O)c1sc2ccccc2c1Cl has pIC50 at least equal to 5.
OUTPUT: y

INPUT: I'd appreciate it if you could say whether CC(C)CN(CC(C)C)C(=O)c1ccc(NC(=O)c2ccc(-c3nc4cc(Cl)c(Cl)cc4n3C)cc2)c(C(=O)O)c1 has pIC50 at least equal to 5.
OUTPUT: y

INPUT: I'd appreciate it if you could say whether O=C(O)c1ccc(/C=C/Cc2ccccc2)cc1NC(=O)c1sc2ccccc2c1Cl has pIC50 at least equal to 5.
OUTPUT: n
